# TARGET_UNDER_TEST: A2A receptor (Sus scrofa, UniProt K9IW67)
# Sequence (K9IW67 1-409): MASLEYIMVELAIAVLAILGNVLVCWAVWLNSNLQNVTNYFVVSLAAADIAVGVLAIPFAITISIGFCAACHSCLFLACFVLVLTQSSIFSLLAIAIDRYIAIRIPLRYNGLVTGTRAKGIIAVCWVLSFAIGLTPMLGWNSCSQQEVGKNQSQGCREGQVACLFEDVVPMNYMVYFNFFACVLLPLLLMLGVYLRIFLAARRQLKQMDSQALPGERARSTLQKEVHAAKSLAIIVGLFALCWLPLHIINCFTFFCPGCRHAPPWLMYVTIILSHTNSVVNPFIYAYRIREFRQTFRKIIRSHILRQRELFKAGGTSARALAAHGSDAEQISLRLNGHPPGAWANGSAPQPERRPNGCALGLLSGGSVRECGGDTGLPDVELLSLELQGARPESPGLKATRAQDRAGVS
# METHOD: A2A receptor affinity in pig striatum membrane prep (tritiated ZM 241385 displacement)
# Assay type: binding
# CONDITION_PARAMETERS: pig striatal membranes, displacement of tritiated ZM 241385 (2 nM), 23° C. 2 h; read-out: A2a Ki
MEASURE_NAME: Ki

Examples with their reported Ki follow.
Incoming: // lookup Ki for `CN(C)C(=O)c1cnn(-c2nc(N)c3ncn([C@@H]4O[C@H](CO)[C@@H](O)[C@H]4O)c3n2)c1`
Outgoing: 0.01 to 1 µM

Incoming: // lookup Ki for `CCOC(=O)c1cnn(-c2nc(N)c3ncn([C@@H]4O[C@H](CO)[C@@H](O)[C@H]4O)c3n2)c1`
Outgoing: 0.01 to 1 µM

Next:
Incoming: // lookup Ki for `Nc1nc(-n2cc(C(=O)O)cn2)nc2c1ncn2[C@@H]1O[C@H](CO)[C@@H](O)[C@H]1O`
Outgoing: > 100 µM

Incoming: // lookup Ki for `Nc1nc(-n2cc(C(=O)NCc3ccc(Cl)cc3)cn2)nc2c1ncn2[C@@H]1O[C@H](CO)[C@@H](O)[C@H]1O`
Outgoing: 0.01 to 1 µM

Incoming: // lookup Ki for Cc1ccc(-c2cnn(-c3nc(N)c4ncn(C5O[C@H](CO)[C@@H](O)[C@H]5O)c4n3)c2)cc1 (stereo partly drawn)
Outgoing: 1 to 10 µM

Incoming: // lookup Ki for `NC(=O)c1cnn(-c2nc(N)c3ncn([C@@H]4O[C@H](CO)[C@@H](O)[C@H]4O)c3n2)c1`
Outgoing: 0.01 to 1 µM

Incoming: // lookup Ki for `Nc1nc(-n2cc(C(=O)NC3CCCC3)cn2)nc2c1ncn2[C@@H]1O[C@H](CO)[C@@H](O)[C@H]1O`
Outgoing: 0.01 to 1 µM

Incoming: // lookup Ki for CCNC(=O)c1cnn(-c2nc(N)c3ncn(C4O[C@H](CO)[C@@H](O)[C@H]4O)c3n2)c1 (stereo partly drawn)
Outgoing: 0.01 to 1 µM

Incoming: // lookup Ki for COc1ccc(-c2cnn(-c3nc(N)c4ncn(C5O[C@H](CO)[C@@H](O)[C@H]5O)c4n3)c2)cc1 (stereo partly drawn)
Outgoing: 1 to 10 µM
